Recorded pEC50 values for a group of binders are listed next.
Biological target: MtYcaO (YcaO from Methanothermobacter sp. CaT2), MBP-His tag cut in the assay mixture (Methanothermobacter sp. CaT2)
Test: fluorescence polarisation
Lab note — pEC50 values are minus log10 of concentrations in M.

MtTfuA-S83A (enzyme) MHGKKIIIFTGPSLSHTEASSILEAEYRPPVRRGDIQEAMKENPDIIGIIDGVFHQSPAVGHREIIDAIRRGVKVVGGAAMGALRASELSDLGMVGVGRIFRSYLEGEIESDDDVAVAFNPETLEPLSDSLVSIEFNLKRALRRGVIREDDFRKLMNTARNLFYPLRNYRRILHESGIPDDVKESLRSFLESEGRDLKREDALEVIRHIKRLAYTE ... 5.39

Pending binder:
MtTfuA-D208N (enzyme) MHGKKIIIFTGPSLSHTEASSILEAEYRPPVRRGDIQEAMKENPDIIGIIDGVFHQSPAVGHREIIDAIRRGVKVVGGASMGALRASELSDLGMVGVGRIFRSYLEGEIESDDDVAVAFNPETLEPLSDSLVSIEFNLKRALRRGVIREDDFRKLMNTARNLFYPLRNYRRILHESGIPDDVKESLRSFLESEGRDLKRENALEVIRHIKRLAYTE yielded pEC50 of 5.41

The origin of these recorded values is paper PMC8084935.
